B1: FLAG-tagged FBXO44 FBA domain (FBXO44^FBA) [human] / RGS2^5–16 peptide (RGS2 degron, Met^5–Met^16) [not stated] (parent complex)
chain 1: FYFLRSLHRNLLHNPCAEEGFEFWSLDVNGGDEWKVEDLSRDQRKEFPNDQVKKYFVTSYYTCLKSQVVDLKAEGYWEELMDTTRPDIEVKDWFAARPDCGSKYQLCVQLLSSAHAPLGTFQPDPATIQQKSDAKWREVSHTFSNYPPGVRYIWFQHGGVDTHYWAGWYGPRVTNSSITIGP
chain 2: MFLAVQHDCRPM

# Variants of: B1
# assaySummary: peptide microarray (PEPperPRINT), α-FLAG fluorescence; three independent experiments with three technical replicates each; parent: 100; read off a plot
percent of parent for assorted variants

Example results:
1. chain 2 C9A = ~25 % Parent
2. chain 2 C9S = ~13 % Parent
3. chain 2 C9V = ~13 % Parent

Record request: percent of parent value, item chain 2 C9M
~13 % Parent

Record request: percent of parent value, item chain 2 C9H
~17 % Parent

Record request: percent of parent value, item chain 2 C9G
~13 % Parent
